experiment: Experiment 6: phenytoin blood serum levels; assay type: in vivo; details: human, oral, 10 mg/kg bodyweight, 5 hrs after 10 mg/kg bodyweight, read-out: mean blood serum level
EXPERIMENTAL ENDPOINT: concentration at 5 h (ng/mL)
Unit ng/mL implied. Number only.

Qu. Return reported concentration at 5 h; argument: O=C1NC(=O)C(c2ccccc2)(c2ccccc2)N1
Ans. 9000
